Molecular target: anti-CD28 Fab (SEQ ID NOs: 696, 697)
Sequence (VH, as listed by the source, chain 1 of 2): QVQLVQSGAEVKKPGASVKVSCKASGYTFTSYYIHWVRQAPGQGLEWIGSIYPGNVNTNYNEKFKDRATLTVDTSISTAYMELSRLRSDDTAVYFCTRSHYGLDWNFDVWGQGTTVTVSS
Sequence (VL, as listed by the source, chain 2 of 2): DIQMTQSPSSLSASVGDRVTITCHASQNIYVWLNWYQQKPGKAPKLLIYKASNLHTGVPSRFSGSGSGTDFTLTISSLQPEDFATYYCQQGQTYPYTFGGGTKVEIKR
Assay: phage binding ELISA; biotinylated Fab on neutravidin plate, clonal phage supernatant, anti-M13 HRP detection;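 also: phage from clones picked after panning, added to wells pre-incubated with blocking buffer with or without CD28 antigen, then briefly incubated and washed before detection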
result_type: Anti-CD28 Fab (SEQ ID NOs: 696, 697) signal
# respond with the number and nothing more

query: Please look up its Anti-CD28 Fab (SEQ ID NOs: 696, 697) signal: YCAGHAPEYIQKCL (tested as crude phage supernatant) [Phage-622]
result: 2.17

query: Please look up its Anti-CD28 Fab (SEQ ID NOs: 696, 697) signal: YCDGHSAEYMWKCL (tested as crude phage supernatant) [Phage-629]
result: 2.15

query: Please look up its Anti-CD28 Fab (SEQ ID NOs: 696, 697) signal: YCDGHLPEYMWKCI (tested as crude phage supernatant) [Phage-628]
result: 2.15

query: Please look up its Anti-CD28 Fab (SEQ ID NOs: 696, 697) signal: YCDGHVAEYRDKCL (tested as crude phage supernatant) [Phage-623]
result: 2.17

query: Please look up its Anti-CD28 Fab (SEQ ID NOs: 696, 697) signal: YCDGHTQEYMAKCL (tested as crude phage supernatant) [Phage-618]
result: 2.17

query: Please look up its Anti-CD28 Fab (SEQ ID NOs: 696, 697) signal: YCDGHVAEYMAKCL (tested as crude phage supernatant) [Phage-627]
result: 2.16

query: Please look up its Anti-CD28 Fab (SEQ ID NOs: 696, 697) signal: YCEGHLPVYMWKCL (tested as crude phage supernatant) [Phage-619]
result: 2.17
